tested on: E. coli BW25113 ΔtolC growth inhibition, OD615; experiment: growth inhibitors of E. coli tolC mutant, dose response, strain BW25113 ΔtolC::kan (AID 617);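 further: growth read after 20 h at 37 °C with compound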
pIC50: −log10 of the molar value.
Label 1 (yes) when pIC50 is at or above 5; anything below gets 0 (no).

INPUT: Given Cc1ccc(Cl)cc1NC(=O)CC(O)(C(F)(F)F)C(F)(F)F , state whether its pIC50 is at least 5.
OUTPUT: 1 (yes)

* * *

system: E. coli BW25113 ΔtolC growth inhibition, OD615; experiment: growth inhibitors of E. coli tolC mutant, dose response, strain BW25113 ΔtolC::kan (AID 617);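 further: growth read after 20 h at 37 °C with compound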
In this section, each of the molecules is paired with its reported IC50.

These solved cases illustrate the format of a correct answer.
Molecule: COc1ccc(C/C(O)=C(\C#N)c2nc3ccccc3s2)cc1
Data Value: 5.12 µM

Molecule: CC(C)(C)c1ccc(Cn2nnc3c(=O)[nH]c(C4CCCN(C(=O)Cc5cccs5)C4)nc32)cc1 (stereo not given)
Data Value: 15.6 µM

INPUT: Quick check: IC50 of O=C(Nc1nnc(-c2cccs2)o1)c1cccc(Oc2ccccc2)c1 ?
OUTPUT: 0.17 µM

INPUT: Data request, read-out IC50, for O=S(=O)(Nc1nc2ccccc2nc1NCc1ccco1)c1ccccc1
OUTPUT: 8.89 µM

INPUT: Using the record for CCc1ccc(S(=O)(=O)NCCc2csc(-c3ccccc3)n2)s1 , report its IC50.
OUTPUT: 8.87 µM

INPUT: Param item = Cc1nn(-c2ccccc2)c(C)c1C(=O)Nc1nnc(-c2ccco2)o1 ; retrieve measured IC50.
OUTPUT: 6.38 µM

INPUT: # get_value(readout='IC50', item= CCc1nc(N2CCCCC2C)c2oc3ccccc3c2n1 (stereo not given) )
OUTPUT: 13.6 µM
